System: HCC1569
Assay: cell number relative to DMSO (% of DMSO); higher = more cells (less growth inhibition / toxicity);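 note: TDF denotes transformed human dermal fibroblasts of mesenchymal origin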
Conditions: concentration: 10 µM; 24 h
// reported cell number per item
Please give the numeric answer without any surrounding text.

Example molecules with recorded cell number:
Suppose we examine the molecule CC1OC(Oc2c(-c3ccc(O)c(O)c3)oc3cc(O)cc(O)c3c2=O)C(O)C(O)C1O (configuration not stated) ; what cell number value has been reported?
97.5

Suppose we examine the molecule Fc1ccc(Cl)cc1-c1nc(Nc2ccncc2)c2nccnc2n1 ; what cell number value has been reported?
98.4

Suppose we examine the molecule NC(=O)c1ccccc1 [Benzamide] ; what cell number value has been reported?
98.5

New cases:
Suppose we examine the molecule C=CC1CN2CCC1CC2C(O)c1ccnc2ccc(OC)cc12.Cl.O.O (configuration not stated) ; what cell number value has been reported?
99

Suppose we examine the molecule CCCCCC=CCC=CCCCCCCCC(N)=O [Linoleamide] ; what cell number value has been reported?
99.8

Suppose we examine the molecule CN(C)CCCCSC(=N)N.Cl.Cl ; what cell number value has been reported?
99.3

Suppose we examine the molecule CC(C)C(NC(=O)OCc1ccccc1)C(=O)NC(C=O)Cc1ccccc1 (configuration not stated) ; what cell number value has been reported?
99.5

###

// reported cell number per item
Tested on: TDF
Assay: cell number relative to DMSO (% of DMSO); higher = more cells (less growth inhibition / toxicity)
Conditions: concentration: 10 µM; 24 h
Please give the numeric answer without any surrounding text.

Suppose we examine the compound CN(C)C(=O)N=NC(=O)N(C)C [N,N,N',N'-Tetramethylazodicarboxamide] ; what cell number value has been reported?
103

Suppose we examine the compound Nc1ccc(O)c(C(=O)O)c1 ; what cell number value has been reported?
103

Suppose we examine the compound COc1cc(C2Oc3cc(C4Oc5cc(O)cc(O)c5C(=O)C4O)ccc3OC2CO)ccc1O (centres undefined) [Silybine] ; what cell number value has been reported?
103

New cases:
Suppose we examine the compound CCCCCCCCCCCCCC=CC(O)C(CO)NC(=O)CCCCCCC (centres undefined) [C8 Ceramide] ; what cell number value has been reported?
99.5

###

// reported cell number per item
System: HCC1569
Assay: cell number relative to DMSO (% of DMSO); higher = more cells (less growth inhibition / toxicity)
Details: concentration: 10 µM; 24 h

Example molecules with recorded cell number:
Suppose we examine the molecule CCCCCC(O)C=CC1OC(=O)CC(O)C1CC=CCCCC(=O)O (stereo not drawn) [11-Dehydro-thromboxane B2] ; what cell number value has been reported?
100

Suppose we examine the molecule CCOC(=O)c1cnc2c(cnn2CC)c1NN=C(C)C [Etazolate] ; what cell number value has been reported?
102

Suppose we examine the molecule CC(=O)O.NC(=NCCCC(N)C(=O)O)NO [NG-Hydroxy-L-arginine acetate] ; what cell number value has been reported?
97.8

Suppose we examine the molecule Cc1ccc(NC(=O)c2ccc(CN3CCN(C)CC3)cc2)cc1Nc1nccc(-c2cccnc2)n1 ; what cell number value has been reported?
101

Suppose we examine the molecule CC(=O)NC(CSCC=C(C)CCC=C(C)C)C(=O)O (stereo not drawn) ; what cell number value has been reported?
101

Suppose we examine the molecule COc1ccc2[nH]c(I)c(CCNC(C)=O)c2c1 ; what cell number value has been reported?
100

New cases:
Suppose we examine the molecule CCN(CC)CCOC(=O)C1(C2CCCCC2)CCCCC1.Cl [Dicyclomine hydrochloride] ; what cell number value has been reported?
100

Suppose we examine the molecule CN1C2CCC1CC(OC(=O)c1c[nH]c3ccccc13)C2.Cl (stereo not drawn) [3-Tropanyl-indole-3-carboxylate hydrochloride] ; what cell number value has been reported?
103
